Data origin, for the record: patent US8853228B2

Readings of pIC50 for the listed compounds
Tested on: HepG2 cells
Test: Mammalian cell toxicity, HepG2
Type: cell-based
Conditions: cytotoxicity, Table 6
pIC50: −log10 of the molar value.
measured.attribute: pIC50

INSERT INTO results (compound, limit_qualifier, obs_value) VALUES
  ('COc1cc(-c2ccncc2)cc(C(C)C#Cc2c(C)nc(N)nc2N)c1 (stereo not drawn) [Compound 147]', '=', 3.63),
  ('CCc1nc(N)nc(N)c1C#CCc1cccc(-c2ccncc2)c1 [Compound 151]', '<', 3.30),
  ('CCc1nc(N)nc(N)c1C#CCc1cc(OC)cc(-c2ccncc2)c1 [Compound 150]', '=', 3.33),
  ('COc1ccc(-c2ccccc2)cc1C(C)C#Cc1c(C)nc(N)nc1N (stereo not drawn) [Compound 145]', '=', 4.03),
  ('CCc1nc(N)nc(N)c1C#CC(C)c1cc(-c2ccccc2)ccc1OC (stereo not drawn) [Compound 146]', '=', 4.11),
  ('CCc1nc(N)nc(N)c1C#CC(C)c1cc(OC)cc(-c2ccncc2)c1 (stereo not drawn) [Compound 148]', '=', 3.77),
  ('COc1cc(C(C)C#Cc2c(C)nc(N)nc2N)cc(N2CCOCC2)c1 (stereo not drawn) [Compound 152]', '=', 3.31),
  ('CCc1nc(N)nc(N)c1C#CCc1cccc(-c2cccnc2)c1 [Compound 154]', '<', 3.30),
  ('CCc1nc(N)nc(N)c1C#CCc1cc(-c2ccncc2)ccc1OC [Compound 149]', '=', 3.70);

---

Molecular target: CgDHFR (Candida glabrata (strain ATCC 2001 / BCRC 20586 / JCM 3761 / NBRC 0622 / NRRL Y-65 / CBS 138) (Yeast) (Nakaseomyces glabratus), UniProt Q6FPH0)
Sequence (Q6FPH0 1-217): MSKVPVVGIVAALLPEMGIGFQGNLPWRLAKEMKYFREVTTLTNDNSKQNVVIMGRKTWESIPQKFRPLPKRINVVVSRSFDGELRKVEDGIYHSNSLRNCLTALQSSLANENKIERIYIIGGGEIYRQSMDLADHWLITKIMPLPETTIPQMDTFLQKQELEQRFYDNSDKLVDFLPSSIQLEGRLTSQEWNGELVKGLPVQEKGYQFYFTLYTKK
Experiment: biochemical
Conditions: Table 7; read-out: IC50 (CgDHFR)
measured.attribute: IC50 (nM)

INSERT INTO assay_data (compound, obs_value) VALUES
  ('CCc1nc(N)nc(N)c1C#CC(C)c1cc(OC)cc(N2C[C@@H](C)O[C@@H](C)C2)c1 (mixture of isomers)', 38),
  ('COc1cc(-c2ccncc2)cc(C(C)C#Cc2c(C)nc(N)nc2N)c1 (stereo not shown)', 97),
  ('CCc1nc(N)nc(N)c1C#CC(C)c1cc(OC)cc(-c2ccncc2)c1 (stereo not shown)', 89),
  ('COc1cc(-c2cc(C)cc(C)c2)cc([C@@H](C)C#Cc2c(C)nc(N)nc2N)c1', 0.55);

---

Readings of IC50 for the listed compounds
Target: CgDHFR (Candida glabrata (strain ATCC 2001 / BCRC 20586 / JCM 3761 / NBRC 0622 / NRRL Y-65 / CBS 138) (Yeast) (Nakaseomyces glabratus), UniProt Q6FPH0)
Assay: biochemical
Conditions: read-out: IC50 against CgDHFR
Method: CgDHFR: The gene coding CgDHFR was amplified by PCR from C. glabrata genomic DNA obtained from ATCC. The gene was inserted in a pET41 vector that includes a C-terminal histidine tag for nickel affinity chromatography. […] Enzyme and inhibitor were allowed to incubate for 5 min before adding dihydrofolate to initiate the reaction. […] IC50 values and their standard deviations were calculated in the presence of varying concentrations of inhibitor near the IC50 concentration.
measured.attribute: IC50

INSERT INTO assay_data (compound, measured_attribute, obs_value) VALUES
  ('COc1ccc(OC)c(CC#Cc2cnc(N)nc2N)c1 [Compound 9]', 'IC50', '≤ 25 nM'),
  ('CCc1nc(N)nc(N)c1C#CCc1cc(OC)ccc1OC [Compound 11]', 'IC50', '≤ 25 nM');
